# methodSummary: Displacement of [3H]2-BFI from Imidazoline receptor 2 in Sprague-Dawley rat whole brain membrane
propertyMeasured: pKi
The quantity pKi is defined as the negative base-10 logarithm of the molar concentration.

Prompt: Look up pKi for this compound: c1cncc(CCC2=NCCN2)c1
Response: 6.38

Prompt: Please answer likewise for c1ccc(-c2ccsc2)c(CCC2=NCCN2)c1
Response: 8.05

Prompt: Please answer likewise for c1ccc2c(CCC3=NCCN3)cccc2c1
Response: 8.94

Prompt: Please answer likewise for c1csc(CCC2=NCCN2)c1
Response: 8.11

Prompt: Please answer likewise for c1c[nH]c(CCC2=NCCN2)c1
Response: 6.59

Prompt: Please answer likewise for O=[N+]([O-])c1cccc(-c2ccccc2CCC2=NCCN2)c1
Response: 6.60

Prompt: Please answer likewise for Oc1ccccc1CCC1=NCCN1
Response: 7.13

Prompt: Please answer likewise for c1ccc(CCC2=NCCN2)cc1
Response: 8.60

Prompt: Please answer likewise for c1ccc(-c2ccccc2CCC2=NCCN2)cc1
Response: 6.80

Prompt: Please answer likewise for Clc1ccccc1CCC1=NCCN1
Response: 8.82

Prompt: Please answer likewise for Cc1ccccc1CCC1=NCCN1
Response: 8.77

Prompt: Please answer likewise for C1CCC(CCC2=NCCN2)CC1
Response: 8.32

---

# targetEntity: UniProt Q4G017
# Sequence (Q4G017 whole entry): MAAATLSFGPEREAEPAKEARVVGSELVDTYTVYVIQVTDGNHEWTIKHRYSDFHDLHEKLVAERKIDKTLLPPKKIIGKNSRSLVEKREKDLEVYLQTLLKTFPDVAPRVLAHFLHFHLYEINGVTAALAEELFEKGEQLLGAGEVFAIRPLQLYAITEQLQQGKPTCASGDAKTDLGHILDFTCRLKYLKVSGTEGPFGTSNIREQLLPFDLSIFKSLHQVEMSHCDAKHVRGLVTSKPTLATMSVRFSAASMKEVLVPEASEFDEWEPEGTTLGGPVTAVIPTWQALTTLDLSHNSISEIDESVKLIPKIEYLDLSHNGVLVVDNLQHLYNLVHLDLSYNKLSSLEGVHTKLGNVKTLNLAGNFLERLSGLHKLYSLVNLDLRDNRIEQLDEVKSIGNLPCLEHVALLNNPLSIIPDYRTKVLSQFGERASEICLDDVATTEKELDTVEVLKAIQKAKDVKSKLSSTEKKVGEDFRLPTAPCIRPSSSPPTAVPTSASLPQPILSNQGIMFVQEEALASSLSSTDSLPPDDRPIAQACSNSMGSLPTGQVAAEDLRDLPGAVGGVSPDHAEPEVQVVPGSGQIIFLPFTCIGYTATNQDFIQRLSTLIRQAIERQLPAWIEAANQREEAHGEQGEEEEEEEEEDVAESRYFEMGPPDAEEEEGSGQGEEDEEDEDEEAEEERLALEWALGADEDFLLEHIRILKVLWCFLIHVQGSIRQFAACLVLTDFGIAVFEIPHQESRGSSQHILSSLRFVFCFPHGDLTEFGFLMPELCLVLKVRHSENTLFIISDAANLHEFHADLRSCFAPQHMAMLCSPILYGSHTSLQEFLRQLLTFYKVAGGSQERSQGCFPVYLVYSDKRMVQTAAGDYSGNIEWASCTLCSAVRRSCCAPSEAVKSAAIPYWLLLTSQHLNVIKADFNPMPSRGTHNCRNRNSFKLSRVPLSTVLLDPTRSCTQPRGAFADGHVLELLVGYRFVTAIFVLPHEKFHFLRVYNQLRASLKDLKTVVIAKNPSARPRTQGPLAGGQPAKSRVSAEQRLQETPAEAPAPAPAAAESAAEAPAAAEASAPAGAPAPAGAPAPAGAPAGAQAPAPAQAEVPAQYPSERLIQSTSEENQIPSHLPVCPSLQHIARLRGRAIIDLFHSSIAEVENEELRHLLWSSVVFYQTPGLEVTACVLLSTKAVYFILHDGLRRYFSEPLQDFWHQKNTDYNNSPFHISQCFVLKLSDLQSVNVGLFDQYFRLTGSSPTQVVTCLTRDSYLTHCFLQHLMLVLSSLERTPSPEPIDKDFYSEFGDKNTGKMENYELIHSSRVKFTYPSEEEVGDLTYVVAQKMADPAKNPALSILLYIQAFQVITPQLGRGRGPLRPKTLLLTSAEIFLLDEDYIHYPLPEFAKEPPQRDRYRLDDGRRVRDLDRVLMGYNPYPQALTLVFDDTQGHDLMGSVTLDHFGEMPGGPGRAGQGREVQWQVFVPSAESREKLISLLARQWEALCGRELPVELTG
# methodSummary: Displacement of [3H]clonidine from Imidazoline receptor 1 in Sprague-Dawley rat kidney membrane
propertyMeasured: log10(IC50) (log10 of the value in µM)
// do not treat as linear: log10 of IC50, unit µM

Prompt: Look up log10(IC50) for this compound: Oc1ccccc1CCC1=NCCN1
Response: 0.86

Prompt: Please answer likewise for c1cncc(CCC2=NCCN2)c1
Response: 2.33

Prompt: Please answer likewise for c1ccc2c(CCC3=NCCN3)cccc2c1
Response: 1.41

Prompt: Please answer likewise for c1ccc(-c2ccsc2)c(CCC2=NCCN2)c1
Response: 0.84

Prompt: Please answer likewise for Cc1ccccc1CCC1=NCCN1
Response: 0.87

Prompt: Please answer likewise for c1c[nH]c(CCC2=NCCN2)c1
Response: 1.38

Prompt: Please answer likewise for c1csc(CCC2=NCCN2)c1
Response: 0.46

Prompt: Please answer likewise for Clc1ccccc1CCC1=NCCN1
Response: 0.63

Prompt: Please answer likewise for C1CCC(CCC2=NCCN2)CC1
Response: 0.55

Prompt: Please answer likewise for O=[N+]([O-])c1cccc(-c2ccccc2CCC2=NCCN2)c1
Response: 0.60

---

# System: Mus musculus
# methodSummary: Increase in morphine-induced analgesia in CD1 mouse at 10 mg/kg, sc after 30 mins by tail flick test relative to control
# Type: functional
# testConditions: route subcutaneous
Decide using Activity alone. Strictly below 20%: y. Equal to or above 20%: n.

Prompt: # check: Activity < 20% for c1c[nH]c(CCC2=NCCN2)c1
Response: y

Prompt: Please answer likewise for c1cncc(CCC2=NCCN2)c1
Response: n

Prompt: Please answer likewise for c1csc(CCC2=NCCN2)c1
Response: n

Prompt: Please answer likewise for C1CCC(CCC2=NCCN2)CC1
Response: n

Prompt: Please answer likewise for c1ccc(CCC2=NCCN2)cc1
Response: n

Prompt: Please answer likewise for c1ccc2c(CCC3=NCCN3)cccc2c1
Response: y

---

# methodSummary: Displacement of [3H]RX821002 from Adrenergic alpha2 receptor in Sprague-Dawley rat whole brain membrane
propertyMeasured: pKi
The quantity pKi is defined as the negative base-10 logarithm of the molar concentration.

Prompt: Look up pKi for this compound: c1ccc(CCC2=NCCN2)cc1
Response: 5.70

Prompt: Please answer likewise for O=[N+]([O-])c1cccc(-c2ccccc2CCC2=NCCN2)c1
Response: 5.95

Prompt: Please answer likewise for c1cncc(CCC2=NCCN2)c1
Response: 4.19

Prompt: Please answer likewise for Oc1ccccc1CCC1=NCCN1
Response: 6.03

Prompt: Please answer likewise for c1ccc(-c2ccsc2)c(CCC2=NCCN2)c1
Response: 6.53

Prompt: Please answer likewise for c1c[nH]c(CCC2=NCCN2)c1
Response: 5.45

Prompt: Please answer likewise for Clc1ccccc1CCC1=NCCN1
Response: 6.53

Prompt: Please answer likewise for c1ccc(-c2ccccc2CCC2=NCCN2)cc1
Response: 5.15

Prompt: Please answer likewise for C1CCC(CCC2=NCCN2)CC1
Response: 5.53

Prompt: Please answer likewise for c1csc(CCC2=NCCN2)c1
Response: 6.09

Prompt: Please answer likewise for Cc1ccccc1CCC1=NCCN1
Response: 6.25

Prompt: Please answer likewise for c1ccc2c(CCC3=NCCN3)cccc2c1
Response: 6.42
